System: mock-infected MT-4 cells
ASSAY PROTOCOL: cytotoxicity in mock-infected MT-4 cells (MTT)
Protocol: A rapid, sensitive and automated assay procedure was used for the in vitro evaluation of anti-HIV agents. […] The viability of both HIV- and mock-infected cells was assessed spectrophotometrically via the in situ reduction of 3-(4,5-dimethylthiazol-2-yl)-2,5-diphenyltetrazolium bromide (MTT). […] The percent protection achieved by the compound in HIV-infected cells was calculated by the following formula: […]
Lab note: compare pCC50 (−log CC50) against 5 M. Equal or greater, write satisfied. Smaller, write not satisfied.

Solved cases below.
Asked: Record Cc1cc(CC#N)cc(Cl)c1Nc1ccnc(Nc2ccc(C#N)cc2)n1 ; criterion: pCC50 (−log CC50) no lower than 5 M. Met?
Given back: satisfied

Asked: Now consider C/C(C#N)=C/c1cc(C)c(Oc2ccnc(Nc3ccc(C#N)cc3)n2)c(C)c1 .
Given back: satisfied

Asked: Now consider Cc1cc(/C=C/C#N)cc(Cl)c1Nc1ccnc(Nc2ccc(C#N)cc2)n1 .
Given back: not satisfied

Asked: Now consider Cc1cc(CC(C)C#N)cc(C)c1Nc1ccnc(Nc2ccc(C#N)cc2)n1 (centres unmarked) .
Given back: satisfied

Switching to the query record.
Asked: Record Cc1cc(CN(C)C=NC#N)cc(C)c1Oc1ccnc(Nc2ccc(C#N)cc2)n1 ; criterion: pCC50 (−log CC50) no lower than 5 M. Met?
Given back: satisfied

---

Test system: HIV
ASSAY PROTOCOL: microbe, parasite or virus in culture
CONDITIONS: selectivity index, ratio of CC50 to IC50, as log difference
MEASURED ATTRIBUTE: pSI (pCC50-pIC50)

Asked: May I ask what pSI (pCC50-pIC50) has been recorded for Cc1cc(/C=C/C#N)cc(Cl)c1Nc1ccnc(Nc2ccc(C#N)cc2)n1 ?
Given back: −5.2

Asked: Now consider Cc1cc(CN(C)CCC#N)cc(Br)c1Nc1ccnc(Nc2ccc(C#N)cc2)n1 .
Given back: −4.1

Asked: Now consider Cc1cc(/C=C/c2cccnc2)cc(C)c1Nc1ccnc(Nc2ccc(C#N)cc2)n1 [Compound 146] .
Given back: −3

Asked: Now consider Cc1cc(Cn2ccnc2)cc(C)c1Nc1ccnc(Nc2ccc(C#N)cc2)n1 .
Given back: −3.3

Asked: Now consider Cc1cc(CC(C#N)C#N)cc(C)c1Nc1ccnc(Nc2ccc(C#N)cc2)n1 .
Given back: −2.2

Asked: Now consider Cc1cc(CN2CCSC2)cc(C)c1Nc1ccnc(Nc2ccc(C#N)cc2)n1 .
Given back: −3.5

Asked: Now consider Cc1cc(/C=C/C(=O)N(C)C2CCN(C)CC2)cc(C)c1Oc1ccnc(Nc2ccc(C#N)cc2)n1 .
Given back: −3.5

Asked: Now consider CCOCc1ccc(Oc2ccnc(Nc3ccc(C#N)cc3)n2)c(C)c1 .
Given back: <−3.2

---

Reported melting point values follow for various molecules

Asked: May I ask what melting point has been recorded for Cc1cc(-c2ccc(C#N)o2)cc(C)c1Nc1ccnc(Nc2ccc(C#N)cc2)n1 ?
Given back: > 260 °C

Next:
Asked: May I ask what melting point has been recorded for CCOCc1ccc(Oc2ccnc(Nc3ccc(C#N)cc3)n2)c(C)c1 ?
Given back: 140 °C

Asked: Now consider Cc1cc(/C=C/C(=O)N(C)C)cc(C)c1Nc1ccnc(Nc2ccc(C#N)cc2)n1 .
Given back: > 264 °C
